Where these numbers come from: paper PMC13161223

Reported values of koff for individual entries
# experimental_target: T1, Biotin-conjugated ^MBPPBD (immobilised ligand of BLI) (human, UniProt P53350 345-603, biotin (Gly-Gly-Gly-Gly-Biotin conjugated to the C-terminal PLPETG peptide by sortase A))
# T1 construct: PLK1, human, residues 345-603 (Polo-box domain construct); As m1 with a C-terminal PLPETG peptide used for biotin labelling; held on streptavidin sensors; also called immobilized PBD; source: E. coli BL21 (DE3), purified (HisTALON, SEC), biotin-labelled with sortase A; not shown: MBP, N-terminal, kept; PLPETG peptide conjugated with Gly-Gly-Gly-Gly-Biotin, C-terminal, kept
# T1 sequence (P53350 345-603): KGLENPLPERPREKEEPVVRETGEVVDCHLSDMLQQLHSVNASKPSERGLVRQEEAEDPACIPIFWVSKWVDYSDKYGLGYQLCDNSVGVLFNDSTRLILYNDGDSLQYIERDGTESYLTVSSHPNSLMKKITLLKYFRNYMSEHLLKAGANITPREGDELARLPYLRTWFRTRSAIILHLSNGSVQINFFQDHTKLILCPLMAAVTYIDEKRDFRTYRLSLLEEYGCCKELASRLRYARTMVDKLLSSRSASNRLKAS
# assay_notes: BLI; biotin-conjugated ^MBPPBD immobilised on streptavidin sensors, CENP-U variants as analyte; 25 °C, 20 mM HEPES pH 7.5, 2.5% glycerol, 300 mM NaCl, 0.1 mM TCEP, 0.3 g/L BSA, 0.05% Tween20; KD from koff/kon of the global fit
# particulars: both partners purified
Non-standard residues stand in square brackets, D forms with d. No end group written: not given here. pT = C[C@@H](OP(=O)(O)O)[C@H](N)C(=O)O; MBP = maltose-binding protein
Kindly answer with a numeric value in s⁻¹, unit omitted.

- binder: "LGENEKDEETYETFDPPLHS[pT]AIYAD (domain or fragment, human, UniProt Q71F23 58-83, looked up, also: N-terminal MBP fusion protein, CENP-U (PBIP1), human, residues 58-83 (Motif 1); also called PLK1-phosphorylated ^MBPCENP-U^58-83; phosphorylated Motif 1; source: E. coli BL21 (DE3), purified; not shown: MBP, N-terminal, kept) [^MBPCENP-U^58-83/pT78]"
  endpoint: "koff"
  observed_result: 0.00034
- binder: "^MBPCENP-U^58-114/pT78/F87A/T98V (domain or fragment, human, UniProt Q71F23 58-114, looked up, also: N-terminal MBP fusion protein, source: E. coli BL21 (DE3), purified; phosphorylated in vitro with only PLK1; not shown: MBP, N-terminal, kept) LGENEKDEETYETFDPPLHS[pT]AIYADEEEASKHCGLSLSSVPPGKEAKRSSDTSGNE"
  endpoint: "koff"
  observed_result: 0.001

For the binder LGENEKDEETAETADPPLHS[pT]AIYAD (domain or fragment, human, UniProt Q71F23 58-83, looked up, also: N-terminal MBP fusion protein, CENP-U (PBIP1), human, residues 58-83 (Motif 1); source: E. coli BL21 (DE3), purified; not shown: MBP, N-terminal, kept) [^MBPCENP-U^58-83/Y68A/F71A/pT78] , report koff.
0.011

For the binder {6xHis-MBP-TEV}-LGENEKDEETYETFDPPLHSTAIYAD (domain or fragment, human, UniProt Q71F23 58-83, looked up, CENP-U (PBIP1), human, residues 58-83 (Motif 1); also called Motif 1; unphosphorylated Motif 1; source: E. coli BL21 (DE3), purified (HisTALON, Resource Q, SEC); not shown: MBP, N-terminal, kept) [^MBPCENP-U^58-83 (6xHis-MBP-TEV-CENP-U^58-83), unphosphorylated] , report koff.
0.00028

For the binder LGENEKDEETYETADPPLHS[pT]AIYAD (domain or fragment, human, UniProt Q71F23 58-83, looked up, also: N-terminal MBP fusion protein, CENP-U (PBIP1), human, residues 58-83 (Motif 1); source: E. coli BL21 (DE3), purified; not shown: MBP, N-terminal, kept) [^MBPCENP-U^58-83/F71A/pT78] , report koff.
0.0077
